B1: OAS1 (parent)
chain: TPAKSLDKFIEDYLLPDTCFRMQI

variants of: B1; experiment: protein stability index of a GFP-peptide fusion (GPS, HEK-293T) (PSI 1-6); higher = more stable; conditions: c terminus: a fixed tail appended;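 further: lentivirally expressed fusions sorted by FACS into six bins by GFP to DsRed ratio, PSI derived from sequencing read proportions per bin multiplied by bin number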
Everything with protein stability index lower than 2 is -1; everything else, including exactly 2, is 1.

Consider the following illustrative entries.
Prompt: Could you verify whether the entry "D12G" shows protein stability index of no less than 2?
Completion: -1

Prompt: Test whether the variant "D12L" records protein stability index of 2 or higher.
Completion: 1

Prompt: API: above_or_equal(metric=protein stability index, cutoff=2) for item "T1P"
Completion: 1

Prompt: Hi team, for "I10D" , is the recorded protein stability index at or above 2?
Completion: -1

Prompt: Tell me whether protein stability index is at least 2 here: "Q23H"
Completion: 1

Others:
Prompt: Decide: protein stability index of "A3M" >= 2?
Completion: 1
